Each recorded value in this set is attributed to ChEMBL document CHEMBL1201862.

Quick list: GI50 per entry.
- System: M14
- assay_explanation: NCI tumour cell line growth inhibition, 48 h
Active and inactive are the calls of the source. Rule as the data show it: active = GI50 up to about 1.1 µM and inactive = higher.

See these solved cases before continuing.
| compound | GI50 |
| --- | --- |
| O=C1c2ccccc2C2CCC1c1ccccc12 (centres undefined) | 36.5 µM (inactive) |
| [N-]=[N+]=Nc1ccccc1Oc1ccccc1 | > 100 µM (inactive) |
| O=C1c2ccccc2C(=O)N1CCCOCc1cnc(O)nc1O | > 100 µM (inactive) |

Supply measured GI50 of CC(C)(C)OC(=O)NC1CCCC1C(=O)C1=CCCC1 (centres undefined) in your reply.
> 100 µM (inactive)
